# experimental_system: Anti-CD28 Fab (SEQ ID NOs: 202, 203)
# Sequence (VH, as listed by the source, chain 1 of 2): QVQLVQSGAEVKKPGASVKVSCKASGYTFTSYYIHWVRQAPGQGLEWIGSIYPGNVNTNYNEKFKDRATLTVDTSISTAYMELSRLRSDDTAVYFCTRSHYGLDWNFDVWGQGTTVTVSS
# Sequence (VL, as listed by the source, chain 2 of 2): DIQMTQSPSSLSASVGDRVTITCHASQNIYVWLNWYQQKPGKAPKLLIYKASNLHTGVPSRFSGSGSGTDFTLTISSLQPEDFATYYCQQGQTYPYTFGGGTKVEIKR
# assay_info: phage binding ELISA on captured Fab;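 note: clonal phage supernatants added briefly to wells pre-incubated with CD28 antigen or with blocking buffer only, then washed, bound phage read by ELISA using HRP-coupled anti-M13 antibody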
Each entry below carries its reported Anti-CD28 Fab (SEQ ID NOs: 202, 203) signal.
Answer with the value's number alone.

Examples from the recorded data:
{"binder": "YCAGHDAEYMQKCL [Phage-876]", "result_value": 0.46}
{"binder": "YCEGHLPSYLAKCL [Phage-753]", "result_value": 1.05}
{"binder": "YCEGHSQEYKAKCF [Phage-802]", "result_value": 0.9}
{"binder": "YCDGHSSAYIDKCL [Phage-752]", "result_value": 1.05}
{"binder": "YCEGHLPMYMQKCM [Phage-818]", "result_value": 0.82}
{"binder": "YCEGHSSAYMRKCL [Phage-758]", "result_value": 1.04}
{"binder": "YCAGHLEMYMSKCL [Phage-798]", "result_value": 0.91}
{"binder": "YCDGHLEVYMSKCL [Phage-767]", "result_value": 1}

In: Which Anti-CD28 Fab (SEQ ID NOs: 202, 203) signal reading was recorded for the binder YCDGHIPQYVEKCL [Phage-788] ?
Out: 0.94

In: Which Anti-CD28 Fab (SEQ ID NOs: 202, 203) signal reading was recorded for the binder YCEGHLAAYMYKCL [Phage-805] ?
Out: 0.89

In: Which Anti-CD28 Fab (SEQ ID NOs: 202, 203) signal reading was recorded for the binder YCDGHNPVYLAKCL [Phage-830] ?
Out: 0.74

In: Which Anti-CD28 Fab (SEQ ID NOs: 202, 203) signal reading was recorded for the binder YCAGHLDVYMSKCL [Phage-781] ?
Out: 0.96

In: Which Anti-CD28 Fab (SEQ ID NOs: 202, 203) signal reading was recorded for the binder YCEGHVPQYMGKCL [Phage-869] ?
Out: 0.5

In: Which Anti-CD28 Fab (SEQ ID NOs: 202, 203) signal reading was recorded for the binder YCDGHAGIYVLKCL [Phage-829] ?
Out: 0.75
